Target: Sodium-dependent serotonin transporter (Rattus norvegicus) (UniProt P31652)
Sequence (P31652 whole entry): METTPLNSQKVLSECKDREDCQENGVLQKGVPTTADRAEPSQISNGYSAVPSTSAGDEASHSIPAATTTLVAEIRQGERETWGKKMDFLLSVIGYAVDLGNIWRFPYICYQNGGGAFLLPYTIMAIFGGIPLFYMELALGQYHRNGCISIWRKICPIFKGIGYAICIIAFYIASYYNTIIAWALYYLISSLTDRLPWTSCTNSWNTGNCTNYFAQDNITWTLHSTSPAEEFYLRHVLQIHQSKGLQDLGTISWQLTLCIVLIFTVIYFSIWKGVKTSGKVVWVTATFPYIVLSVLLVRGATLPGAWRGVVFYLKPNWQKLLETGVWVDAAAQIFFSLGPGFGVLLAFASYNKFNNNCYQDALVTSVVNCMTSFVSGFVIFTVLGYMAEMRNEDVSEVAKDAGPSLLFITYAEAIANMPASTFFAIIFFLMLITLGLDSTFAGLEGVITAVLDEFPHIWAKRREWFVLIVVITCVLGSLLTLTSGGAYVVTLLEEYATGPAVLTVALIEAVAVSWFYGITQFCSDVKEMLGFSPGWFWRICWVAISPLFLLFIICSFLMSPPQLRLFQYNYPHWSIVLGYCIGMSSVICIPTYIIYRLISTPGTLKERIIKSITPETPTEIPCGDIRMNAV
Test: Inhibition of tritiated serotonin(5-HT) uptake at 0.1 uM concentration
Assay type: functional
Provide the reported inhibition of each item.
Report the figure in % without appending any unit label.

Asked: Consider the compound Br.Fc1ccc([C@@H]2CN3CCC[C@H]3c3cc(F)ccc32)cc1 . State its measured inhibition.
Given back: 21

Asked: Consider the compound Br.COc1cc([C@@H]2CN3CCC[C@H]3c3ccccc32)cc(OC)c1OC . State its measured inhibition.
Given back: 12

Asked: Consider the compound COc1ccc([C@@H]2CN3CCC[C@H]3c3ccccc32)cc1OC . State its measured inhibition.
Given back: 27

Asked: Consider the compound Br.Clc1cccc2c1[C@H](c1ccccc1)CN1CCC[C@@H]21 . State its measured inhibition.
Given back: 0

Asked: Consider the compound COc1cccc2c1[C@H](c1ccccc1)CN1CCC[C@@H]21 . State its measured inhibition.
Given back: 31

Asked: Consider the compound Fc1ccc([C@@H]2CN3CCC[C@H]3c3ccccc32)cc1 . State its measured inhibition.
Given back: 3

Asked: Consider the compound COc1ccc([C@@H]2CN3CCCC3c3cc(OC)c(OC)cc32)cc1OC (some centres not stated) . State its measured inhibition.
Given back: 10
